- Tested on: IGROV1 ovarian
- Assay protocol: NCI tumour cell line growth inhibition, 48 h
Kindly state TGI for each of the entries shown.

CCOC(=O)NNC(=O)NCCCCNC(=O)NNC(=O)OCC	> 100 µM

// for each compound in input: emit TGI
1. Nc1n[nH]c(=O)c2c1c(I)cn2C1OC(CO)C(O)C1O (stereo not given)
2. CCCCC/C=C1\CCC(CN(C)C)C1=O (stereo not given)

Result:
1. > 100 µM
2. 32.6 µM

// for each compound in input: emit TGI
1. O=S(=O)(Nc1ccc(Cl)cc1Cl)c1ccc(-c2cnc(C3CC3)o2)cc1
2. Nc1c(C(=O)c2ccccc2)cnn1-c1ccc(F)cc1

Result:
1. > 73.3 µM
2. > 25 µM

---

- Tested on: MOLT-4 leukemia
- Assay protocol: NCI tumour cell line growth inhibition, 48 h; in the data active = GI50 below about 0.43 µM; inactive = the rest
Choose the fitting class; nothing outside y for active, n for inactive is accepted.

O=[N+]([O-])c1cccc2ccc(N/N=C/c3ccccc3O)nc12	y
O=C(Nc1ccc(Cl)c(C(F)(F)F)c1)c1ccc(NC2=C(Cl)C(=O)N(Cc3ccccc3)C2=O)cc1	n

Request: Hi, do you know how CC(C)=CCc1cc(O)cc2c1OC(C=C(C)C)C1=C2C(=O)C2=C(C1=O)S(=O)(=O)CCN2 (stereo not given) came out in this test?
Result: n

Request: Hi, do you know how O=C1CCC/C=C\C[C@H]2C=CC(=O)/C2=C/C[C@H](C/C=C\CC(F)(F)F)O1 came out in this test?
Result: n

Request: Hi, do you know how CC(C)OC(=O)[C@H](C)NP(=O)(OC[C@H]1O[C@@H](n2ccc(=O)[nH]c2=O)[C@](C)(F)[C@@H]1O)Oc1ccccc1 (stereo not given in full) came out in this test?
Result: n

---

- Test system: MALME-3M melanoma
- Assay protocol: NCI tumour cell line growth inhibition, 48 h
Kindly state TGI for each of the entries shown.

CS(=O)(=O)c1ccc(-c2cc(-c3ccc(S(C)(=O)=O)cc3)[n+](-c3cc(-c4ccccc4)c([O-])c(-c4ccccc4)c3)c(-c3ccc(S(C)(=O)=O)cc3)c2)cc1	> 100 µM
CC1CCN(C(=O)OCc2nc3nc(Cl)nc(N4CCOCC4)c3[nH]2)CC1	2.86 µM
O=c1nc(N2CCNCC2)oc2cc(Cl)oc(=O)c12	14.5 µM
O=C1CCC(=O)c2c1c(O)c1ccncc1c2O	29.4 µM

// for each compound in input: emit TGI
1. COC(=O)C1=CN(CC2=CC(=O)C(C)=CC2=O)C=C(C(=O)OC)C1c1cccc(OC)c1
2. CC(Oc1ccc(OCC2CCCCC2)cc1)C(=O)OCC(=O)c1ccc(-c2ccccc2)cc1 (centres undefined)
3. CCN(Cc1ccc(F)cc1)c1ccc(CO)c(Br)c1
4. NCC(=O)Nc1ccc(S(=O)(=O)O)c2cc(S(=O)(=O)O)cc(S(=O)(=O)O)c12
5. Cc1nc2ccc(F)cc2c2c1CCN2c1ccc(Cl)cc1
6. Cc1cc(C(F)(F)F)cc(-n2nc(NS(=O)(=O)c3cc(C)c(Cl)cc3S)nc2N)n1

Result:
1: 16.1 µM; 2: > 100 µM; 3: 38 µM; 4: > 100 µM; 5: 26.9 µM; 6: > 100 µM

---

- Test system: NCI-H522 lung
- Assay protocol: NCI tumour cell line growth inhibition, 48 h
Kindly state GI50 for each of the entries shown.

COc1ccc(-c2nsc3c2NC(=O)CC3c2cccc(OC)c2)cc1 (stereo unspecified)	702 nM
Cc1ccc(Nc2oc(-c3ccccc3)nc2[P+](c2ccccc2)(c2ccccc2)c2ccccc2)cc1	450 nM
O=C(Nc1cc(C(F)(F)F)ccc1Cl)c1cccc(NC2=C(Cl)C(=O)N(Cc3ccccc3)C2=O)c1	6800 nM
COC(=O)c1ccc2c(c1)/C(=C\c1cc(Br)c(O)c(Br)c1)C(=O)N2	4730 nM
O=[N+]([O-])c1ccc(CI)cc1	1410 nM

As a next step, examine the compound that follows.
Request: Using known records, supply GI50 for CCc1ccc(/C=C/c2ccc(O)c3ncccc23)[n+](C)c1
Result: 2300 nM
